Source listed as paper PMC7982521.

experimental_details: Multi-component pharmacokinetics in rat plasma after oral administration of RB, RPA or RB-RPA extracts (UPLC-HRMS, non-compartmental analysis)
Type: in vivo, Sprague-Dawley rats
run_conditions: rat plasma, oral administration of single extract RPA, mean ± SD, n = 7
Structures can show the parent of a compound that is named as a salt.
result_type: t1/2 (h)
Write the answer as a number in h, unit excluded.

C[C@@]12C[C@@]3(O)O[C@@H](O1)[C@]1(CO)[C@H]3C[C@@]12O[C@@H]1O[C@H](CO)[C@@H](O)[C@H](O)[C@H]1O :: 2.72

Value of measured t1/2 for the entry O=S(=O)(O)Oc1cccc(O)c1O [Pyrogallol sulfate] : 7.72

Value of measured t1/2 for the entry `C[C@]12C[C@@H](O)[C@@H]3C[C@@]1(O[C@@H]1O[C@H](CO)[C@@H](O)[C@H](O)[C@H]1O)[C@@]3(COC(=O)c1ccccc1)C(=O)O2` : 3.19

Value of measured t1/2 for the entry CC1C2OC3(C)CC(=O)C1CC3(O)O2 (centres unmarked) [Paeonimetabolin I] : 7.39

Value of measured t1/2 for the entry `C[C@@]12C[C@@]3(O)O[C@@H](O1)[C@]1(COC(=O)c4ccccc4)[C@H]3C[C@@]12O[C@@H]1O[C@H](CO)[C@@H](O)[C@H](O)[C@H]1O` : 2.71

---

experimental_details: Multi-component pharmacokinetics in rat plasma after oral administration of RB, RPA or RB-RPA extracts (UPLC-HRMS, non-compartmental analysis)
Assay type: in vivo, Sprague-Dawley rats
run_conditions: male, Sprague-Dawley, rat, plasma, po, 45 g/kg, rat plasma, oral RB single extract 45 g-herb/kg, mean ± SD, n = 7; read-out: tmax
Protocol: (Beijing, China, No. SCXK2018-0011). […] All rats were free to access the water and food until 12 h before the experiment. […] So, we applied the method of switching ion modes in the detection process to quantify all analytes better. […] UPLC/MS/MS calibration and quantitation data were processed with Xcalibur workstation (Thermo-Fisher Scientific Inc., Waltham, MA, United States). […]
result_type: tmax (min)
Write the answer as a number in min, unit excluded.

Value of measured tmax for the entry `C[C@H]1O[C@@H](O[C@H]2CC[C@@]3(C)[C@@H](CC[C@]4(C)[C@@H]3C=C[C@]35OC[C@@]6(CCC(C)(C)C[C@H]63)[C@@H](O)C[C@]54C)[C@]2(C)CO)[C@H](O)[C@@H](O[C@@H]2O[C@H](CO)[C@@H](O)[C@H](O)[C@H]2O)[C@H]1O` : 32.4

---

experimental_details: Multi-component pharmacokinetics in rat plasma after oral administration of RB, RPA or RB-RPA extracts (UPLC-HRMS, non-compartmental analysis)
Format: in vivo, Sprague-Dawley rats
run_conditions: male, Sprague-Dawley, rat, plasma, po, 45 g/kg, rat plasma, oral RB-RPA mixed extracts (45 g-herb/kg RB + 45 g-herb/kg RPA), mean ± SD, n = 7; read-out: Cmax
result_type: Cmax
Returns: string containing the number followed by the unit.

Value of measured Cmax for the entry `C[C@H]1O[C@@H](O[C@H]2CC[C@@]3(C)[C@@H](CC[C@]4(C)[C@@H]3C=C[C@]35OC[C@@]6(CCC(C)(C)C[C@H]63)[C@@H](O)C[C@]54C)[C@]2(C)CO)[C@H](O)[C@@H](O[C@@H]2O[C@H](CO)[C@@H](O)[C@H](O)[C@H]2O)[C@H]1O` : 46.5 ng/mL
